Experimental Target: T1, human-CD40 monomer (human, UniProt P25942 21-193, limits assumed)
T1 construct: also called hCD40-monomer; human-CD40-monomer protein
T1 sequence (P25942 21-193 limits assumed): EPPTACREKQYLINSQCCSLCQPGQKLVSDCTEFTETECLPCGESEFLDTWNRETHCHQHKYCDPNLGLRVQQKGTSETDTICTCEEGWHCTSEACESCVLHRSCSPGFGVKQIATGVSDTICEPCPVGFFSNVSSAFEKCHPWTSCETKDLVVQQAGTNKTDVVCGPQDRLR
Experiment Description: SPR 2 pt screen, Ab on protein A
Exam item: assign true to entries whose koff is below 0.0003 s⁻¹ and false to entries at or above 0.0003 s⁻¹. Note that a value of exactly 0.0003 s⁻¹ receives false.

Answered cases to consult:
{"Binder": "humanized Y1238 hz34 (hz-HC7 / hz-LC4), IgG1.3f (antibody, V domains shown, IgG1.3f heavy constant, common CL; expression supernatant; also called Sup 34) VH: QVQLVQSGAEVVKPGASVKVSCKASGYAFTNYLIEWVRQRPGQGLEWMGVINPGSGGTNYNEKFKGRVTMTADKSSSTAYMQLSRLRSDDTAVYFCARSQLGRRFDYWGQGTLVTVSS VL: DIQMTQSPSSLSASVGDRVTITCKASQDVRTGVAWYQQKPGQSPKLLIYSASYRNTGVPSRFSGSRSGTDFTFTISSLQAEDIAVYYCQQHYSPPYTFGGGTKVEIK", "Cat": "true"}
{"Binder": "humanized Y1238 hz24 (hz-HC5 / hz-LC4), IgG1.3f (antibody, V domains shown, IgG1.3f heavy constant, common CL; expression supernatant; also called Sup 24) VH: QVQLVQSGAEVKKPGASVKVSCKASGYAFTNYLIEWVRQRPGQGLEWMGVINPGSGGTNYNEKFKGRVTMTADKSISTAYMELSRLRSDDTAVYYCARSQLGRRFDYWGQGTLVTVSS VL: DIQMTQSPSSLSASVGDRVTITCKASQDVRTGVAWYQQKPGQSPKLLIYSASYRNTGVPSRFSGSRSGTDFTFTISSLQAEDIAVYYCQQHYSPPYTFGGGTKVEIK", "Cat": "false"}
{"Binder": "humanized Y1238 hz33 (hz-HC7 / hz-LC3), IgG1.3f (antibody, V domains shown, IgG1.3f heavy constant, common CL; expression supernatant; also called Sup 33) VH: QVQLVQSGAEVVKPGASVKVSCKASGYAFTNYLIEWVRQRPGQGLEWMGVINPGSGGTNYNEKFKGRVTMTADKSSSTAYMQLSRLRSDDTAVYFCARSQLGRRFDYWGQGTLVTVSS VL: DIQMTQSPSSLSASVGDRVTITCKASQDVRTGVAWYQQKPGQSPKLLIYSASYRNTGVPSRFSGSRSGTDFTFTISSLQPEDIAVYYCQQHYSPPYTFGGGTKVEIK", "Cat": "false"}

INPUT: Is 0.0003 s⁻¹ strictly greater than the binder's reported koff? binder: humanized Y1238 hz17 (hz-HC4 / hz-LC2), IgG1.3f (antibody, V domains shown, IgG1.3f heavy constant, common CL; expression supernatant; also called Sup 17) VH: QVQLVQSGAEVKKPGASVKVSCKASGYAFTNYLIEWVRQAPGQGLEWMGVINPGSGGTNYNEKFKGRVTMTADKSISTAYMELSRLRSDDTAVYYCARSQLGRRFDYWGQGTLVTVSS VL: DIQMTQSPSSLSASVGDRVTITCKASQDVRTGVAWYQQKPGKAPKLLIYSASYRNTGVPSRFSGSRSGTDFTFTISSLQPEDIATYYCQQHYSPPYTFGGGTKVEIK
OUTPUT: true

INPUT: hey, is koff for humanized Y1238 hz5 (hz-HC1 / hz-LC5), IgG1.3f (antibody, V domains shown, IgG1.3f heavy constant, common CL; expression supernatant; also called Sup 5) VH: QVQLVQSGAEVKKPGASVKVSCKASGYAFTNYLIEWVRQAPGQGLEWMGVINPGSGGTNYNEKFKGRVTMTRDTSISTAYMELSRLRSDDTAVYYCARSQLGRRFDYWGQGTLVTVSS VL: DIQMTQSPSSLSASVGDRVTITCKASQDVRTGVAWYQQKPGQAPKLLIYSASYRNTGVPSRFSGSRSGTDFTFTISSLQPEDIAVYYCQQHYSPPYTFGGGTKVEIK lower than 0.0003 s⁻¹ or not?
OUTPUT: false

INPUT: Consider humanized Y1238 hz53 (hz-HC11 / hz-LC3), IgG1.3f (antibody, V domains shown, IgG1.3f heavy constant, common CL; expression supernatant; also called Sup 53) VH: QVQLVQSGAEVKKPGASVKVSCKASGYAFTNYLIEWVRQRPGQGLEWMGVINPGSGGTNYNEKFKGRVTMTRDKSSSTAYMELSRLRSDDTAVYFCARSQLGRRFDYWGQGTLVTVSS VL: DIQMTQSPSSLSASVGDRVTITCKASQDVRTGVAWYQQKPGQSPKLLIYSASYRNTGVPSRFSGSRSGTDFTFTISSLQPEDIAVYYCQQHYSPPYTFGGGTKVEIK . Does its koff lie strictly below 0.0003 s⁻¹?
OUTPUT: false

INPUT: Find out if reported koff for humanized Y1238 hz49 (hz-HC10 / hz-LC4), IgG1.3f (antibody, V domains shown, IgG1.3f heavy constant, common CL; expression supernatant; also called Sup 49) VH: QVQLVQSGAEVKKPGASVKVSCKASGYAFTNYLIEWVRQRPGQGLEWMGVINPGSGGTNYNEKFKGRVTMTRDKSISTAYMELSRLRSDDTAVYYCARSQLGRRFDYWGQGTLVTVSS VL: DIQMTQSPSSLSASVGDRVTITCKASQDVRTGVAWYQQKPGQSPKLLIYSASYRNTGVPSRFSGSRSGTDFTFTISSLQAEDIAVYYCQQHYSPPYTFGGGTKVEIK is less than 0.0003 s⁻¹
OUTPUT: false

INPUT: Does the reported koff of the following binder sit strictly below 0.0003 s⁻¹? humanized Y1238 hz52 (hz-HC11 / hz-LC2), IgG1.3f (antibody, V domains shown, IgG1.3f heavy constant, common CL; expression supernatant; also called Sup 52) VH: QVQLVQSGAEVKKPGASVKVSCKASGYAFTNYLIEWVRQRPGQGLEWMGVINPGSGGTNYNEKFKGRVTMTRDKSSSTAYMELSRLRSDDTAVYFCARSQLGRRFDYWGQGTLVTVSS VL: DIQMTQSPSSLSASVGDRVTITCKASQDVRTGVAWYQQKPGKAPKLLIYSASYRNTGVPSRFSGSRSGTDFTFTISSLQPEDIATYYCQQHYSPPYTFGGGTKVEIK
OUTPUT: true

INPUT: Problem: For the binder humanized Y1238 hz4 (hz-HC1 / hz-LC4), IgG1.3f (antibody, V domains shown, IgG1.3f heavy constant, common CL; expression supernatant; also called Sup 4) VH: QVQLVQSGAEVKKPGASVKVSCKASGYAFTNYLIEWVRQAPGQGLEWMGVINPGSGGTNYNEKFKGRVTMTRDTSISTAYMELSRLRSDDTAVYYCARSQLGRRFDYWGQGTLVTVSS VL: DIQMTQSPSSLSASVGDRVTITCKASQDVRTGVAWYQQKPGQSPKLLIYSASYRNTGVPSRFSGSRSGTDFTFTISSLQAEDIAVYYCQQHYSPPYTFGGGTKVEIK , is koff under 0.0003 s⁻¹?
OUTPUT: false

INPUT: Is koff strictly under 0.0003 s⁻¹ for the entry humanized Y1238 hz25 (hz-HC5 / hz-LC5), IgG1.3f (antibody, V domains shown, IgG1.3f heavy constant, common CL; expression supernatant; also called Sup 25) VH: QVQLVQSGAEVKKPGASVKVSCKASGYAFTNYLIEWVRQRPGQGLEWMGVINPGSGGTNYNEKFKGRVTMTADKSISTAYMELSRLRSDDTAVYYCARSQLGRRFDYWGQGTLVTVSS VL: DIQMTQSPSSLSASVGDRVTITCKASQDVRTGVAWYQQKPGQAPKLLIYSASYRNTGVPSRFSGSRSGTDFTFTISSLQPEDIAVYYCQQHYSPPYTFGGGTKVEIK ?
OUTPUT: true
